Where do the numbers come from? From patent US20240016942A1.

- TEST TARGET: STAT3 (Homo sapiens, UniProt P40763)
- Construct: expressed in transfected cells; host or cells: A549
- Sequence (P40763 whole entry): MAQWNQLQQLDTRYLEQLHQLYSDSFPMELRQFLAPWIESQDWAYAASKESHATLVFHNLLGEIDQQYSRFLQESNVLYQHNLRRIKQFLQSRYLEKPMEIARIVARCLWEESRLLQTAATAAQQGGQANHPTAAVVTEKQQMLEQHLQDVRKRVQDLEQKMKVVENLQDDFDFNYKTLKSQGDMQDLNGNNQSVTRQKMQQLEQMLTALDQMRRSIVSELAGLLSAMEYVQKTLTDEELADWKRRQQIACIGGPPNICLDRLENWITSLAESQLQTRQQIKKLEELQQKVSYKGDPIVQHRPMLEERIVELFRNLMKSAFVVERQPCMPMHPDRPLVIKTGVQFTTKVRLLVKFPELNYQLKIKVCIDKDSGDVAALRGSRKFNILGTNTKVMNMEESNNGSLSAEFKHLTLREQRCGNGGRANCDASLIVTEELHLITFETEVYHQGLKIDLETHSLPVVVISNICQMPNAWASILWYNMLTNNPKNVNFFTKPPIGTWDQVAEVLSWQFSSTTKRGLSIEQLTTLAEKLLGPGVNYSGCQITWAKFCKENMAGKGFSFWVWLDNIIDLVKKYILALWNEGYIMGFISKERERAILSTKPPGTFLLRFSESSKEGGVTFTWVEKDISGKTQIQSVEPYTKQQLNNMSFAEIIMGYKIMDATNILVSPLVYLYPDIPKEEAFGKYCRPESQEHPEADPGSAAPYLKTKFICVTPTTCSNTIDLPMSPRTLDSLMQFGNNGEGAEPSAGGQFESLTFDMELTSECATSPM
- ASSAY PROTOCOL: STAT3 HiBiT degradation assay (Nano-Glo HiBiT lytic detection) in transfected A549 cells
- Assay type: cell-based
- REPORTED CONDITIONS: read-out: STAT3 HiBIT A549 degradation 24 h: Average external-Abs DC50, 24 h compound incubation
- Procedure: Example 1. HiBiT Assay Protocol Compound preparation and Cell seeding: The transfected A549 cells were harvested from dish into cell culture medium and cell numbers counted. […] Detection: Plates were removed from incubators and equilibrated at room temperature for 15 minutes. […] 30 μL of Nano-Glo Hibit Lytic Detection reagent was added into each well to be detected. The plates were held at room temperature for 10 min followed by reading on EnSpire. […]
READOUT: DC50

Here is how some compounds turned out for DC50.
Exam item: Quick one: DC50 for CC(=O)N1CC[C@H]2CC[C@@H](C(=O)N[C@@H](CCC(N)=O)COc3cccc(CCCC(=O)N[C@H](C(=O)N4C[C@H](O)C[C@H]4C(=O)N[C@@H](C)c4ccc(-c5scnc5C)cc4)C(C)(C)C)c3Cl)N2C(=O)[C@@H](NC(=O)c2cc3cc(C(F)(F)P(=O)(O)O)ccc3s2)C1 ?
Marked response: > 1000 nM

Exam item: Quick one: DC50 for Cn1c(=O)n(C2CCC(=O)NC2=O)c2ccc(C[C@H]3CC[C@@H](CC(=O)N4CC[C@H]5CC[C@@H](C(=O)N[C@@H](CCC(N)=O)C(=O)NCc6ccc(S(C)(=O)=O)c(F)c6)N5C(=O)[C@@H](NC(=O)c5cc6cc(C(=O)P(=O)(O)O)ccc6[nH]5)C4)CC3)cc21 (stereo partly drawn) ?
Marked response: 10 to 100 nM

Exam item: Quick one: DC50 for Cc1ncsc1-c1ccc([C@H](C)NC(=O)[C@@H]2C[C@@H](O)CN2C(=O)[C@@H](NC(=O)CCCc2cccc(OC[C@H](CCC(N)=O)NC(=O)[C@@H]3CC[C@@H]4CCCC[C@H](NC(=O)c5cc6cc(C(=O)P(=O)(O)O)ccc6s5)C(=O)N43)c2Cl)C(C)(C)C)cc1 ?
Marked response: > 1000 nM

Exam item: Quick one: DC50 for Cc1ncsc1-c1ccc([C@H](C)NC(=O)[C@@H]2C[C@@H](O)CN2C(=O)[C@@H](NC(=O)CCCc2cccc(OC[C@H](CCC(N)=O)NC(=O)[C@@H]3CC[C@@H]4CCCC[C@H](NC(=O)c5cc6cc(C(F)(F)P(=O)(O)O)ccc6s5)C(=O)N43)c2Cl)C(C)(C)C)cc1 ?
Marked response: > 1000 nM

Exam item: Quick one: DC50 for CC(C)c1ccc(CNC(=O)[C@H](CCC(N)=O)NC(=O)[C@@H]2CC[C@@H]3CCN(C(=O)[C@H]4CC[C@@H](CCc5ccc6c(c5)n(C)c(=O)n6C5CCC(=O)NC5=O)CC4)C[C@H](NC(=O)c4cc5cc(C(=O)P(=O)(O)O)ccc5[nH]4)C(=O)N32)cc1Cl (stereo partly drawn) ?
Marked response: 10 to 100 nM

Continuing:
Exam item: Quick one: DC50 for COC(=O)N1CC[C@H]2CC[C@@H](C(=O)N[C@@H](CCC(N)=O)COc3cccc(CCCC(=O)N[C@H](C(=O)N4C[C@H](O)C[C@H]4C(=O)N[C@@H](C)c4ccc(-c5scnc5C)cc4)C(C)(C)C)c3Cl)N2C(=O)[C@@H](NC(=O)c2cc3cc(C(=O)P(=O)(O)O)ccc3s2)C1 ?
Marked response: > 1000 nM
